Target: KPC-2 (K. pneumoniae) (Klebsiella pneumoniae)
Test: biochemical
Details: K.p. KPC-2 IC50, Table 3
Overview of recorded IC50 for various molecules
assay.readout: IC50 (nM)

>>> meas_value("O=C(N[C@H]1CNC[C@H]1F)[C@@H]1CC[C@@H]2CN1C(=O)N2OS(=O)(=O)O")
710
>>> meas_value("O=C(NC[C@@H]1CNCCCO1)[C@@H]1CC[C@@H]2CN1C(=O)N2OS(=O)(=O)O")
110
>>> meas_value("O=C(NCC1CCNCC1)[C@@H]1CC[C@@H]2CN1C(=O)N2OS(=O)(=O)O")
77
>>> meas_value("O=C(N[C@@H]1CCNC1)[C@@H]1CC[C@@H]2CN1C(=O)N2OS(=O)(=O)O")
4300
>>> meas_value("O=C(N[C@@H]1CNC[C@@H]1F)[C@@H]1CC[C@@H]2CN1C(=O)N2OS(=O)(=O)O")
190
>>> meas_value("CO[C@H]1CNCC[C@H]1NC(=O)[C@@H]1CC[C@@H]2CN1C(=O)N2OS(=O)(=O)O")
290
>>> meas_value("O=C(NC1CCNC1)[C@@H]1CC[C@@H]2CN1C(=O)N2OS(=O)(=O)O (stereo in doubt)")
355
>>> meas_value("O=C(NC[C@H]1CNCCCO1)[C@@H]1CC[C@@H]2CN1C(=O)N2OS(=O)(=O)O")
100

* * *

Molecular target: KPC-2 (K. pneumoniae) (Klebsiella pneumoniae)
Assay: biochemical
Conditions: Table 3; read-out: K.p. KPC-2 IC50
pIC50: −log10 of the molar value.
# pIC50 values compiled below
assay.readout: pIC50

>>> meas_value("O=C(NC(CO)C1CCNCC1)[C@@H]1CC[C@@H]2CN1C(=O)N2OS(=O)(=O)O (some centres unmarked)")
6.49
>>> meas_value("O=C([C@@H]1CC[C@@H]2CN1C(=O)N2OS(=O)(=O)O)N1CC2CNCC2C1 (some centres unmarked)")
7.48
>>> meas_value("O=C(Nc1cnccn1)[C@@H]1CC[C@@H]2CN1C(=O)N2OS(=O)(=O)O")
7.24
>>> meas_value("NC1CCN(C(=O)[C@@H]2CC[C@@H]3CN2C(=O)N3OS(=O)(=O)O)CC1")
8.10
>>> meas_value("O=C(N[C@H]1CCNC[C@H]1F)[C@@H]1CC[C@@H]2CN1C(=O)N2OS(=O)(=O)O")
6.89
>>> meas_value("O=C(OC1CCNCC1)[C@@H]1CC[C@@H]2CN1C(=O)N2OS(=O)(=O)O")
8.05
>>> meas_value("NCC1CCCCN1C(=O)[C@@H]1CC[C@@H]2CN1C(=O)N2OS(=O)(=O)O (some centres unmarked)")
6.11
>>> meas_value("O=C(O[C@H]1CCNC[C@@H]1F)[C@@H]1CC[C@@H]2CN1C(=O)N2OS(=O)(=O)O")
8.40

* * *

Biological target: KPC-2 (K. pneumoniae) (Klebsiella pneumoniae, UniProt Q9F663)
Sequence (Q9F663 25-293 limits assumed): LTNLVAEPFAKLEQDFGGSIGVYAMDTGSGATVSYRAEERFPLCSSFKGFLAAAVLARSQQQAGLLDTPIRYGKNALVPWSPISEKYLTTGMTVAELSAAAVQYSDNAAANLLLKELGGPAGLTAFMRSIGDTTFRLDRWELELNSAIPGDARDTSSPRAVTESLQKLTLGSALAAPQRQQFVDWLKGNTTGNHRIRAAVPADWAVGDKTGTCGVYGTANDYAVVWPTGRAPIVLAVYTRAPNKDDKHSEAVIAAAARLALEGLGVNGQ
Assay: biochemical
Conditions: Table 3; read-out: K.p. KPC-2 IC50
The following compounds are shown together with reported log10(IC50) values.
assay.readout: log10(IC50) (log10 of the value in µM)

>>> meas_value("O=C(O[C@@H]1CNC[C@H]1F)[C@@H]1CC[C@@H]2CN1C(=O)N2OS(=O)(=O)O")
-1.89
>>> meas_value("O=C([C@@H]1CC[C@@H]2CN1C(=O)N2OS(=O)(=O)O)N1CC2(CCNCC2)C1")
0.00
>>> meas_value("CN(C)c1ccnc(NC(=O)[C@@H]2CC[C@@H]3CN2C(=O)N3OS(=O)(=O)O)c1")
-0.39
>>> meas_value("CC(=O)Oc1ccc(C(=O)NCCOC(=O)[C@@H]2CC[C@@H]3CN2C(=O)N3OS(=O)(=O)O)cc1OC(C)=O")
-1.15
>>> meas_value("CC(=O)Oc1ccc(C(=O)NCC(CNC(=O)c2ccc(OC(C)=O)c(OC(C)=O)c2)OC(=O)[C@@H]2CC[C@@H]3CN2C(=O)N3OS(=O)(=O)O)cc1OC(C)=O")
-1.92
>>> meas_value("O=C(NC1CNC1)[C@@H]1CC[C@@H]2CN1C(=O)N2OS(=O)(=O)O")
-1.77
>>> meas_value("O=C(Nc1ccc(N2CCNCC2)cn1)[C@@H]1CC[C@@H]2CN1C(=O)N2OS(=O)(=O)O")
-1.82

* * *

Target: KPC-2 (K. pneumoniae) (Klebsiella pneumoniae, UniProt Q9F663)
Assay: biochemical
Conditions: Table 3; read-out: K.p. KPC-2 IC50
pIC50: −log10 of the molar value.
Threshold rule: pIC50 greater than or equal to 7 is Met; below that, Not met.

>>> category("O=C(N[C@H]1CCN(C2CCNCC2)C1=O)[C@@H]1CC[C@@H]2CN1C(=O)N2OS(=O)(=O)O")
"Met"
>>> category("O=C(Nc1ccc(N2CCOCC2)cn1)[C@@H]1CC[C@@H]2CN1C(=O)N2OS(=O)(=O)O")
"Met"
>>> category("O=C(Nc1cccc(C2CCNCC2)n1)[C@@H]1CC[C@@H]2CN1C(=O)N2OS(=O)(=O)O")
"Met"
>>> category("NCCOC(=O)[C@@H]1CC[C@@H]2CN1C(=O)N2OS(=O)(=O)O")
"Met"
>>> category("O=C(NC1CCCNC1)[C@@H]1CC[C@@H]2CN1C(=O)N2OS(=O)(=O)O (stereo partly shown) [Example 19a]")
"Not met"
>>> category("O=C(Nc1ccccn1)[C@@H]1CC[C@@H]2CN1C(=O)N2OS(=O)(=O)O")
"Met"
>>> category("O=C(O[C@H]1CCCNCC1)[C@@H]1CC[C@@H]2CN1C(=O)N2OS(=O)(=O)O")
"Met"
>>> category("O=C(N[C@H]1CCCNCC1)[C@@H]1CC[C@@H]2CN1C(=O)N2OS(=O)(=O)O")
"Not met"
>>> category("O=C(Nc1nccs1)[C@@H]1CC[C@@H]2CN1C(=O)N2OS(=O)(=O)O")
"Met"
>>> category("O=C(Nc1cc(C2CCNCC2)ccn1)[C@@H]1CC[C@@H]2CN1C(=O)N2OS(=O)(=O)O")
"Not met"
>>> category("N[C@@H]1CNC[C@H]1NC(=O)[C@@H]1CC[C@@H]2CN1C(=O)N2OS(=O)(=O)O")
"Not met"
>>> category("O=C(N[C@@H]1CNC[C@H]1O)[C@@H]1CC[C@@H]2CN1C(=O)N2OS(=O)(=O)O")
"Not met"

* * *

Target: AmpC (P. aeruginosa) (Pseudomonas aeruginosa (strain ATCC 15692 / DSM 22644 / CIP 104116 / JCM 14847 / LMG 12228 / 1C / PRS 101 / PAO1), UniProt P24735)
Sequence (P24735 27-397): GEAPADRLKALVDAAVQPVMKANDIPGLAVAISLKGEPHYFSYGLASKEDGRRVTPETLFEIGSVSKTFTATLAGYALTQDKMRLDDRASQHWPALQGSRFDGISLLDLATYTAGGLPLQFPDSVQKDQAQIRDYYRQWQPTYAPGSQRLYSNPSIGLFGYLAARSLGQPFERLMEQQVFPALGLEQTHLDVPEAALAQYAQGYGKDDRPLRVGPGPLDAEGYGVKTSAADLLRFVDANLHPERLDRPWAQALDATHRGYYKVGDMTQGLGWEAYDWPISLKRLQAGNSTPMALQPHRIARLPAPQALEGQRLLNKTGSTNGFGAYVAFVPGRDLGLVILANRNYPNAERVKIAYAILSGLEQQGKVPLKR
Test: biochemical
Details: Table 3; read-out: P.a. AmpC IC50
Each entry below lists one item and its recorded IC50 value.
assay.readout: IC50 (nM)

>>> meas_value("CNCc1ccc(NC(=O)[C@@H]2CC[C@@H]3CN2C(=O)N3OS(=O)(=O)O)cc1")
18
>>> meas_value("O=C(Nc1ccc(CN2CCCC2)cc1)[C@@H]1CC[C@@H]2CN1C(=O)N2OS(=O)(=O)O")
22
>>> meas_value("O=C(Nc1ccc(C2CCNCC2)cn1)[C@@H]1CC[C@@H]2CN1C(=O)N2OS(=O)(=O)O")
6
>>> meas_value("O=C(O[C@@H]1CCNC[C@H]1F)[C@@H]1CC[C@@H]2CN1C(=O)N2OS(=O)(=O)O")
40
>>> meas_value("O=C(Nc1ccc2c(c1)CNC2)[C@@H]1CC[C@@H]2CN1C(=O)N2OS(=O)(=O)O")
16
>>> meas_value("O=C(Nc1cc(C2CCNCC2)ccn1)[C@@H]1CC[C@@H]2CN1C(=O)N2OS(=O)(=O)O")
0.8
>>> meas_value("O=C(NCC1CCCN1)[C@@H]1CC[C@@H]2CN1C(=O)N2OS(=O)(=O)O (stereo partly shown)")
250

* * *

Below: a set of entries, each annotated with reported pIC50.
Target: AmpC (P. aeruginosa) (Pseudomonas aeruginosa (strain ATCC 15692 / DSM 22644 / CIP 104116 / JCM 14847 / LMG 12228 / 1C / PRS 101 / PAO1))
Assay: biochemical
Settings: Table 2; read-out: P.a. AmpC IC50
pIC50: −log10 of the molar value.
assay.readout: pIC50

>>> meas_value("O=C(N[C@@H]1CCNC1)[C@@H]1CC[C@@H]2CN1C(=O)N2OS(=O)(=O)O")
4.54
>>> meas_value("CC1(C)[C@H](C(=O)O)N2C(=O)C[C@H]2S1(=O)=O [Sulbactam, sulbactam, reference compound]")
4.77
>>> meas_value("CN(C)c1cc(NC(=O)[C@@H]2CC[C@@H]3CN2C(=O)N3OS(=O)(=O)O)ccn1")
8.80
>>> meas_value("NCc1ccc(NC(=O)[C@@H]2CC[C@@H]3CN2C(=O)N3OS(=O)(=O)O)cc1")
7.70
>>> meas_value("COc1cc(NC(=O)[C@@H]2CC[C@@H]3CN2C(=O)N3OS(=O)(=O)O)ccn1")
8.96
